Assay: Staphylococcus aureus RN4220 growth blockers – two temperatures, LtaS inhibitor project, primary screen (AID 720641)
Settings: S. aureus RN4220 growth, OD600, 20 h, 42 °C; measured here: growth at 30 °C; stronger effect = lower value
In all, about 170,000 compounds went through this assay and about 900 (0.53%) were called active. The sample as a whole holds a higher share of actives than the screen did.
// boundary case: relative growth equal to 90% maps to 0; strictly smaller maps to 1

[in] In plain terms, does O=C(N/C=C/c1ccsc1)Nc1cc(C(F)(F)F)cc(C(F)(F)F)c1 come in under 90% for relative growth?
[out] 1

[in] In plain terms, does CCC(C)NC(=O)Cn1nc(-c2ccccc2)c2cc(Cl)ccc21 (configuration not stated) come in under 90% for relative growth?
[out] 1

[in] In plain terms, does CS(=O)(=O)NCCNc1cc(-c2ccccc2)nc2ccccc12 come in under 90% for relative growth?
[out] 1

[in] In plain terms, does O=C(O)CCCC(=O)Nc1cc(C(F)(F)F)cc(C(F)(F)F)c1 come in under 90% for relative growth?
[out] 1

[in] In plain terms, does CCOC(=O)CN1C(=O)S/C(=C\c2ccc(-c3ccc(Cl)cc3Cl)o2)C1=O come in under 90% for relative growth?
[out] 1

[in] In plain terms, does COC(=O)c1ccccc1NC(=O)CSc1ccccn1 come in under 90% for relative growth?
[out] 0

[in] In plain terms, does CCOC(=O)CSc1ccccn1 come in under 90% for relative growth?
[out] 0

[in] In plain terms, does c1ccc(-c2nc3ccccc3nc2N2CCCC2)cc1 come in under 90% for relative growth?
[out] 0

[in] In plain terms, does O=C(CSc1ccccn1)Nc1cc(C(F)(F)F)cc(C(F)(F)F)c1 come in under 90% for relative growth?
[out] 1

[in] In plain terms, does CCOC(=O)CCSc1ccccn1 come in under 90% for relative growth?
[out] 1

###

Would you kindly list relative growth for each of these molecules?
Assay: Staphylococcus aureus RN4220 growth blockers – two temperatures, LtaS inhibitor project, primary screen (AID 720641)
Conditions: S. aureus RN4220 growth, OD600, 20 h, 42 °C; stronger effect = lower value
The whole screen tested about 170,000 compounds, of which about 900 (0.53%) were called active. What follows is part of a selection rich in actives, with near analogues and random picks from the rest.
Numbers only; they are read as %.

[in] # relative growth lookup, item N#Cc1c(-c2ccco2)cc(C2CC2)nc1SCC(=O)c1ccc(Br)cc1
[out] 82.6

[in] # relative growth lookup, item Cc1cccc(Nc2cc(C)nc(-n3nc(C)cc3C)n2)c1
[out] -0.22

[in] # relative growth lookup, item CCC(CC)NCc1ccc(OC)c(C)c1OC
[out] 74.7

[in] # relative growth lookup, item Cc1ccc(CNCc2cccn2-c2sc(C)c(C)c2C(=O)O)cc1
[out] 87.6

[in] # relative growth lookup, item Cc1ccccc1OCC(=O)Nc1cc(Sc2ccccn2)cc(S(=O)(=O)c2ccccc2)c1
[out] 103

[in] # relative growth lookup, item CC(NCc1ccc(OC(F)F)cc1OC(F)F)c1ccc(-n2ccnc2)cc1 (stereo unspecified)
[out] 101

[in] # relative growth lookup, item CC(C)(C)c1ccc(S(=O)(=O)N2CCN(C(=O)c3cc(-c4ccc(Br)cc4)n[nH]3)CC2)cc1
[out] 99.3

[in] # relative growth lookup, item Nc1cc(C(F)(F)F)ccc1-n1cccn1
[out] 92.8

[in] # relative growth lookup, item FC(F)(F)c1cc(-c2ccc(Br)cc2)n[nH]1
[out] 8.64

[in] # relative growth lookup, item CN(C)/N=C/c1ccc(OC(=O)c2ccco2)cc1
[out] 91.3

[in] # relative growth lookup, item CC(C)(C)C(=O)Nc1ccc(Br)cc1
[out] 109

###

Assay: Staphylococcus aureus RN4220 growth blockers – two temperatures, LtaS inhibitor project, primary screen (AID 720641)
Settings: S. aureus RN4220 growth, OD600, 20 h, 42 °C; measured here: growth at 30 °C; stronger effect = lower value
Among all 170,000 compounds or so, about 900 (0.53%) were called active. Only a selection was taken, and actives are over-represented in it overall.
// boundary case: relative growth equal to 90% maps to false; strictly smaller maps to true

[in] In plain terms, does Oc1c(Cl)cc(Cl)cc1C1Nc2cc(C(F)(F)F)ccc2-n2cccc21 (stereo not drawn) come in under 90% for relative growth?
[out] true

[in] In plain terms, does CC(Oc1ccccc1)C(=O)N[C@@H]1C(=O)N2[C@@H]1SC(C)(C)[C@@H]2C(=O)O (stereo partly drawn) come in under 90% for relative growth?
[out] true

[in] In plain terms, does CO/N=C(/C(=O)N[C@@H]1C(=O)N2C(C(=O)O)=C(CSc3nc(=O)c(O)nn3C)CS[C@H]12)c1csc(N)n1 come in under 90% for relative growth?
[out] true

[in] In plain terms, does CNC(=O)C1CCN(S(=O)(=O)c2c(C)noc2/C=C/c2cccc(C)c2)CC1 come in under 90% for relative growth?
[out] true

[in] In plain terms, does CC(=O)N1CC=C(c2ccc(O)cc2)CC1 come in under 90% for relative growth?
[out] true

[in] In plain terms, does Oc1c(Cl)cc(Cl)c(Cl)c1Cc1c(O)c(Cl)cc(Cl)c1Cl come in under 90% for relative growth?
[out] true

[in] In plain terms, does CC(Oc1ccccc1)C(=O)NC1CCCCC1 (stereo not drawn) come in under 90% for relative growth?
[out] false

[in] In plain terms, does CCOC(=O)c1oc2ccccc2c1N=Cc1c(O)n(CC)c(=S)n(CC)c1=O come in under 90% for relative growth?
[out] false

[in] In plain terms, does Cc1ccc(OC(=O)c2cc3ccccc3o2)cc1 come in under 90% for relative growth?
[out] true

[in] In plain terms, does O=C(Oc1ccc2oc(=O)sc2c1)c1ccccc1 come in under 90% for relative growth?
[out] false

[in] In plain terms, does Cc1cc(SCc2ccc(F)cc2)c(C)cc1Cl come in under 90% for relative growth?
[out] false

[in] In plain terms, does CCn1nc(-c2cccs2)cc1C(=O)N(C)C come in under 90% for relative growth?
[out] true

[in] In plain terms, does O=C(CSc1nc2ccsc2c(=O)n1Cc1ccccn1)Nc1nccs1 come in under 90% for relative growth?
[out] true

[in] In plain terms, does Cc1cc(N2CCCCC2)nc2ccc(NC(=O)CCC(=O)N3CCC(C)CC3)cc12 come in under 90% for relative growth?
[out] true

[in] In plain terms, does O=C(NCCc1ccccc1)c1ccc(C(=O)c2ccccc2)o1 come in under 90% for relative growth?
[out] false

[in] In plain terms, does COc1cc(C2C(C(=O)Nc3ccccn3)=C(C)NC3=C2C(=O)CCC3)cc(OC)c1OC (stereo not drawn) come in under 90% for relative growth?
[out] false

[in] In plain terms, does CN1CCN(c2nc(C34CC5CC(CC(C5)C3)C4)cs2)CC1 come in under 90% for relative growth?
[out] true

###

Assay: Staphylococcus aureus RN4220 growth blockers – two temperatures, LtaS inhibitor project, primary screen (AID 720641)
Conditions: S. aureus RN4220 growth, OD600, 20 h, 42 °C; stronger effect = lower value
Hit rate of the full screen: of about 170,000 compounds, about 900 (0.53%) were called active. Only a selection was taken, and actives are over-represented in it overall.
Would you kindly list relative growth for each of these molecules?
Numbers only; they are read as %.

[in] # relative growth lookup, item CSc1nsc(SCC(=O)N2CCCC2)n1
[out] 93.6

[in] # relative growth lookup, item CCOC(=O)c1cc2oc(C)cc2n1CCCN1C(=O)c2ccccc2C1=O
[out] -0.65

[in] # relative growth lookup, item CCOC(=O)c1cc2n(c1N)-c1ccccc1C2=O
[out] 85.9

[in] # relative growth lookup, item O=C(Oc1ccc2oc(=O)sc2c1)c1ccccc1
[out] 92.5

[in] # relative growth lookup, item O=C(Nc1cccc(-c2nc3ccccc3o2)c1)c1cccc(OCc2ccccc2)c1
[out] 124

[in] # relative growth lookup, item N#C/C(=C\c1ccc(-c2ccc(S(=O)(=O)N3CCOCC3)cc2)o1)S(=O)(=O)c1ccc(Br)cc1
[out] 87.4

[in] # relative growth lookup, item Cc1c(/C=C/C(=O)Oc2ccc(C#N)cc2)sc2ccccc12
[out] 110

[in] # relative growth lookup, item O=C(NCCSc1ccccc1)c1cccnc1Oc1ccccc1
[out] 115

[in] # relative growth lookup, item N#Cc1ccc(OCC(=O)N=Nc2[nH]c(N)c3ccccc23)cc1
[out] 104

[in] # relative growth lookup, item O=C(OCCN1CCCCC1)c1cccc(COc2ccc3ccccc3c2)c1
[out] 102

[in] # relative growth lookup, item O=C(Nc1ccncc1)c1cccc(COc2ccc3ccccc3c2)c1
[out] 1.11

###

Would you kindly list relative growth for each of these compounds?
Assay: Staphylococcus aureus RN4220 growth blockers – two temperatures, LtaS inhibitor project, primary screen (AID 720641)
Conditions: S. aureus RN4220 growth, OD600, 20 h, 42 °C; stronger effect = lower value
Hit rate of the full screen: of about 170,000 compounds, about 900 (0.53%) were called active. Shown is part of a subset that was picked to be rich in actives.

[in] # relative growth lookup, item N#CCSc1ccccc1NC(=O)CN1CCc2sccc2C1c1cccs1 (stereo unspecified)
[out] 94.4% (inactive)

[in] # relative growth lookup, item CC(C)Oc1ccc(NC(=O)c2cc3ccccc3o2)cc1
[out] 87.3% (inactive)

[in] # relative growth lookup, item CNC(=O)C1CCN(S(=O)(=O)c2c(C)noc2/C=C/c2cccc(C)c2)CC1
[out] 107% (inactive)

[in] # relative growth lookup, item Cc1ccc(OC(=O)c2cc3ccccc3o2)cc1
[out] 0.01% (active)

[in] # relative growth lookup, item CCCNS(=O)(=O)c1ccc(N2CCCCS2(=O)=O)cc1
[out] 101% (inactive)

[in] # relative growth lookup, item CCCCNC(=O)c1cc(-c2ccc(Cl)c(Cl)c2)on1
[out] 100% (inactive)

[in] # relative growth lookup, item Cc1ccc2nc(CN3CCc4sccc4C3c3cccs3)cn2c1 (stereo unspecified)
[out] 0.12% (active)

[in] # relative growth lookup, item CCOC(=O)c1cnc2c(F)cc(F)cc2c1N1CCOCC1
[out] 118% (inactive)

[in] # relative growth lookup, item CC(=O)N1CC(C(=O)Nc2cccc(-c3nnc4n3CCCCC4)c2)Oc2ccccc21 (stereo unspecified)
[out] 78.4% (inactive)

[in] # relative growth lookup, item COCCNC(=O)c1cc(-c2cccc(Cl)c2)on1
[out] 92.5% (inactive)

[in] # relative growth lookup, item Cc1ccc(-c2cc(C(=O)Oc3ccccc3Cl)no2)cc1C
[out] 0.23% (active)
